Origin of the recorded values: patent US10344054B2

Below, each of the compounds is paired with its reported Emax value.
measuredTarget: UniProt:P30556
Sequence (P30556 1-359): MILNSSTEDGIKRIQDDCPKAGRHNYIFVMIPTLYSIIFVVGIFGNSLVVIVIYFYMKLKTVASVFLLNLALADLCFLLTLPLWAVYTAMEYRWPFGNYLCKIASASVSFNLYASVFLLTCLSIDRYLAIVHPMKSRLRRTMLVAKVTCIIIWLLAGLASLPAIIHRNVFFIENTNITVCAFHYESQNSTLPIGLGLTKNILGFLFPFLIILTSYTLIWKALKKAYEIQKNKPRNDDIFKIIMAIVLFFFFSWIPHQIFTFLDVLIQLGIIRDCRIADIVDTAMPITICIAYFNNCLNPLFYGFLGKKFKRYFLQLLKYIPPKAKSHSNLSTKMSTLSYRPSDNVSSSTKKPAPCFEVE
assayMethodText: FLIPR calcium flux assay, Part I: agonist activity
Type: cell-based
measurementContext: ChanTest hAT1R stable cells; % MPE, percent of the maximal possible effect; read-out: hAT1R Agonist Efficacy Agonist (%) Ave
Starred links: 1 amine or outer side, 2 acyl side, 3 side chain; linkers in the order of their positions; H or OH if unused. Non-standard residues stand in square brackets, D forms with d. Residues, ends and D or L forms follow the SMILES beside them. X1 = O=C(CN(C[C@H](O)[C@@H](O)[C@H](O)[C@H](O)CO)[*:1])[*:2]; dPhe(2-Cl) = N[C@H](Cc1ccccc1Cl)C(=O)O; Gly(cPent) = N[C@H](C(=O)O)C1CCCC1
Kindly provide the numeric value in % only, without the unit symbol.

Below, each entry is followed by its recorded Emax result.
{"compound": "CC(C)[C@H](NC(=O)[C@H](CCCNC(=N)N)NC(=O)CNC[C@H](O)[C@@H](O)[C@H](O)[C@H](O)CO)C(=O)N[C@@H](Cc1ccc(O)cc1)C(=O)N[C@H](C(=O)N[C@@H](Cc1c[nH]cn1)C(=O)N1CCC[C@H]1C(=O)N[C@H](Cc1ccccc1Cl)C(=O)O)C(C)C [Compound 29] (HELM PEPTIDE1{[O=C(CNC[C@H](O)[C@@H](O)[C@H](O)[C@H](O)CO)[*:2]].R.V.Y.V.H.P.[O=C(O)[C@@H](Cc1ccccc1Cl)N[*:1]]}$$$$V2.0)", "Emax [%]": 6}
{"compound": "CNCC(=O)N[C@@H](CCCNC(=N)N)C(=O)N[C@H](C(=O)N[C@@H](Cc1ccc(O)cc1)C(=O)N[C@H](C(=O)N[C@@H](Cc1c[nH]cn1)C(=O)N1CCC[C@H]1C(=O)N[C@H](Cc1ccccc1Cl)C(=O)O)[C@@H](C)OC)C(C)C", "Emax [%]": 2}

In the following, a different compound is considered.
Prompt: I am curious: what Emax value has been reported for CC(C)[C@H](NC(=O)[C@H](CCCNC(=N)N)NC(=O)CNC[C@H](O)[C@@H](O)[C@H](O)[C@H](O)CO)C(=O)N[C@@H](Cc1ccc(O)cc1)C(=O)N[C@H](C(=O)N[C@@H](Cc1c[nH]cn1)C(=O)N1CCC[C@H]1C(=O)N[C@H](Cc1ccccc1Cl)C(=O)O)C1CCCC1 [Compound 43] (H-[X1]RVY[Gly(cPent)]HP[dPhe(2-Cl)]-OH) ?
Response: 6

---

Reported pIC50 values are given for each entry in this list.
measuredTarget: hAT1R (Homo sapiens, UniProt P30556)
assayMethodText: FLIPR calcium flux assay, Part II: antagonist activity against Angiotensin II
Type: cell-based
measurementContext: read-out: hAT1R Antagonist IC50 Ave
Residues, ends and D or L forms follow the SMILES beside them.
Would you please state pIC50, meaning minus log10 of the concentration in mol/L, as a bare number?

{"compound": "CNCC(=O)N[C@@H](CCCNC(=N)N)C(=O)N[C@H](C(=O)N[C@@H](Cc1ccc(O)cc1)C(=O)N[C@@H](Cc1ccc(N)cc1)C(=O)N[C@@H](Cc1c[nH]cn1)C(=O)N1CCC[C@H]1C(=O)N[C@H](Cc1cccc2ccccc12)C(=O)O)C(C)C [Compound 13, Sar-Arg-Val-Tyr-Aph-His-Pro-(D-1Nal)-OH] (HELM PEPTIDE1{[Sar].R.V.Y.[Nc1ccc(C[C@H](N[*:1])C(=O)[*:2])cc1].H.P.[O=C(O)[C@@H](Cc1cccc2ccccc12)N[*:1]]}$$$$V2.0)", "measuredTarget": "hAT1R (Homo sapiens, UniProt P30556)", "recordedMeasurement": 8.49}
{"compound": "CNCC(=O)N[C@@H](CCCNC(=N)N)C(=O)N[C@H](C(=O)N[C@@H](Cc1ccc(O)c(O)c1)C(=O)N[C@H](C(=O)N[C@@H](Cc1c[nH]cn1)C(=O)N1CCC[C@H]1C(=O)N[C@H](Cc1ccccc1Cl)C(=O)O)C(C)C)C(C)C [Compound 32] (HELM PEPTIDE1{[Sar].R.V.[O=C([C@H](Cc1ccc(O)c(O)c1)N[*:1])[*:2]].V.H.P.[O=C(O)[C@@H](Cc1ccccc1Cl)N[*:1]]}$$$$V2.0)", "measuredTarget": "hAT1R (Homo sapiens, UniProt P30556)", "recordedMeasurement": 7.62}

Could you now look at the following compound, please?
Prompt: Please provide the recorded pIC50 for CNCC(=O)N[C@@H](CCCNC(=N)N)C(=O)N[C@H](C(=O)N[C@@H](Cc1ccc(O)cc1)C(=O)N[C@H](C(=O)N[C@@H](Cc1c[nH]cn1)C(=O)N1CCC[C@H]1C(=O)N[C@H](Cc1ccccc1Br)C(=O)O)C(C)C)C(C)C [Compound 11] (HELM PEPTIDE1{[Sar].R.V.Y.V.H.P.[O=C(O)[C@@H](Cc1ccccc1Br)N[*:1]]}$$$$V2.0) , tested on hAT1R (Homo sapiens, UniProt P30556).
Response: 8.06
